List of TGI values.
Test system: CAKI-1 renal
Experiment: NCI tumour cell line growth inhibition, 48 h

Solved cases below.
COc1ccc2[nH]c(O)c(/C=c3/ccc4c(c3)N=C(c3ccc(F)cc3)N=4)c2c1; > 100 µM
COc1ccc(C#CC2=C(c3cc(OC)c(OC)c(OC)c3)C(=O)OC2)cc1; 2.99 µM
C/C(=C1\C(=O)C(c2ccccc2)N(c2ccccc2)C1=O)c1ccc(Cl)cc1 (configuration not stated); 48.4 µM
CC(=O)OC1[C@@H](OC(C)=O)CN(OCc2ccccc2)C[C@H]1OC(C)=O (some centres not stated); > 100 µM
COc1ccc(C(=O)OC2C(OC3C(O)COC(O[C@H]4C[C@H]5[C@@H]6CC=C7C[C@@H](O)CC[C@]7(C)[C@H]6CC[C@]5(C)[C@H]4[C@H](C)C(=O)CCC(C)C)C3OC(C)=O)OCC(O)C2O)cc1 (some centres not stated); 0.349 µM

[in] Look up TGI for this compound: "O=C(Nc1cccc(-n2cc(-c3ccncc3)c(-c3ccc(O)c(Cl)c3)n2)c1)c1ccc(Cl)c(Cl)c1"
[out] > 100 µM

[in] Look up TGI for this compound: "CCCCN1C(=O)CS/C1=N/Nc1nc2c([nH]1)c(=O)n(C)c(=O)n2C"
[out] > 100 µM

[in] Look up TGI for this compound: COc1cc2c(cc1O)C(c1cc(O)c(O)c(OC)c1)C(O)(C(=O)O)C(CO)C2O (configuration not stated)
[out] > 100 µM

[in] Look up TGI for this compound: CC12CC(Sc3ccccc3N1)c1ccccc1O2 (configuration not stated)
[out] 42.4 µM

[in] Look up TGI for this compound: "COC[C@@H](N=CN1CCc2cc(OC)c(OC)cc2C1)C(C)(C)C"
[out] > 100 µM

[in] Look up TGI for this compound: "CC(C)(C)N=CN(C=C(c1ccccc1)c1ccccc1)C1CCCCC1"
[out] > 100 µM

* * *

Tested on: NCI-H522 lung
Assay: NCI tumour cell line growth inhibition, 48 h; in the data active = GI50 below about 0.43 µM; inactive = the rest
Mark one answer only. Choices: active, inactive

COC(=O)/C(=C\c1c(-c2ccccc2)[nH]c2ccccc12)S(C)(=O)=O; inactive
COc1ccc(-c2nnc(Nc3nc(O)c(C4=c5cc(F)ccc5=NC4=O)s3)o2)cc1; inactive
CCCCCSC1C2C(=O)C(Br)=CC13CCNc1c(O)c4c5c(c13)=[N+]2CCC=5C=N4 (stereo not drawn); inactive
O=Nc1c(O)c2ccccc2c2ccccc12; inactive

[in] Please state the recorded outcome for this molecule: "Cc1cc(O)cc(C)c1/C=C/c1cncc(C(=O)OC(C)(C)C)c1"
[out] inactive

[in] Please state the recorded outcome for this molecule: "CN(C)c1ccc(/C=N/NC(=O)c2cccc3ccccc23)c(Cl)c1"
[out] inactive

[in] Please state the recorded outcome for this molecule: "CCN(CC)CCCNc1[nH]ncc2c(C)c3nc4ccccc4c3cc12"
[out] active

[in] Please state the recorded outcome for this molecule: COc1ccc(C(=O)OC2C(OC3C(O)COC(O[C@H]4C[C@H]5[C@@H]6CC=C7C[C@@H](O)CC[C@]7(C)[C@H]6CC[C@]5(C)[C@H]4[C@H](C)C(=O)CCC(C)C)C3OC(C)=O)OCC(O)C2O)cc1 (stereo partly drawn)
[out] active

[in] Please state the recorded outcome for this molecule: "CN(C)CCNc1nc2ccccc2c2occc12"
[out] inactive

[in] Please state the recorded outcome for this molecule: "Cc1cc2c(cc1C)[n+](Cc1ccc3ccccc3n1)cn2Cc1ccc2ccccc2n1"
[out] inactive

[in] Please state the recorded outcome for this molecule: "CN1CCN(c2ccc(C(=O)Nc3cccc(C#Cc4cccc5[nH]nc(N)c45)c3)cc2C(F)(F)F)CC1"
[out] inactive

[in] Please state the recorded outcome for this molecule: "COc1ccc(/C(=N/O)c2cc(OC)c(OC)c(OC)c2)c(OC)c1N"
[out] inactive

[in] Please state the recorded outcome for this molecule: "CCOC(=O)c1nc2cc(C(F)(F)F)ccc2[n+]([O-])c1C"
[out] inactive

[in] Please state the recorded outcome for this molecule: "COc1ccc(-c2nc(-c3nc4ccc(C(F)(F)F)cc4[nH]3)c3ccccn23)cc1"
[out] inactive
